Please respond with reported growth at 0.1 µM for every item in the list.
Tested on: MOLT-4
protocol: Growth inhibition of human MOLT4 cells assessed as cell growth at 10^-7 M by sulforhodamine B assay
Format: functional
conditions_used: read-out: Activity
Lab book: enter the figure in %, no units written.

Request: Name the reported growth at 0.1 µM value associated with the molecule CC(C)=CC(=O)O[C@@H]1CC(C)(C)C[C@H]2C3=CC[C@@H]4[C@@]5(C)CC[C@H](O)C(C)(C)[C@@H]5CC[C@@]4(C)[C@]3(C)CC[C@@]12C(=O)O [Reduced Lantadene B]
Result: 94

Request: Name the reported growth at 0.1 µM value associated with the molecule C/C=C(/C)C(=O)O[C@@H]1CC(C)(C)C[C@H]2C3=CC[C@@H]4[C@@]5(C)CCC(=O)C(C)(C)[C@@H]5CC[C@@]4(C)[C@]3(C)CC[C@@]12C(=O)O [LANTADENE A]
Result: 102

Request: Name the reported growth at 0.1 µM value associated with the molecule CC(C)=CC(=O)O[C@@H]1CC(C)(C)C[C@H]2C3=CC[C@@H]4[C@@]5(C)CCC(=O)C(C)(C)[C@@H]5CC[C@@]4(C)[C@]3(C)CC[C@@]12C(=O)O
Result: 100

Request: Name the reported growth at 0.1 µM value associated with the molecule C/C=C(/C)C(=O)O[C@@H]1CC(C)(C)C[C@H]2C3=CC[C@@H]4[C@@]5(C)CC[C@H](O)C(C)(C)[C@@H]5CC[C@@]4(C)[C@]3(C)CC[C@@]12C(=O)O [Reduced Lantadene A]
Result: 98

Request: Name the reported growth at 0.1 µM value associated with the molecule CC1(C)C[C@@H](O)[C@]2(C(=O)O)CC[C@]3(C)C(=CC[C@@H]4[C@@]5(C)C/C(=C\C=C\c6ccccc6)C(=O)C(C)(C)[C@@H]5CC[C@]43C)[C@@H]2C1
Result: 97

###

Test system: RPMI-8226
protocol: Growth inhibition of human RPMI8226 cells assessed as cell growth at 10^-4 M by sulforhodamine B assay
Format: functional
conditions_used: read-out: Activity
Please respond with reported growth at 100 µM for every item in the list.

Request: Recall the recorded growth at 100 µM for CC1(C)C[C@@H](O)[C@]2(C(=O)O)CC[C@]3(C)C(=CC[C@@H]4[C@@]5(C)C/C(=C\C=C\c6ccccc6)C(=O)C(C)(C)[C@@H]5CC[C@]43C)[C@@H]2C1 with RPMI-8226 and state it.
Result: -6%

Request: Recall the recorded growth at 100 µM for C/C=C(/C)C(=O)O[C@@H]1CC(C)(C)C[C@H]2C3=CC[C@@H]4[C@@]5(C)CCC(=O)C(C)(C)[C@@H]5CC[C@@]4(C)[C@]3(C)CC[C@@]12C(=O)O with RPMI-8226 and state it.
Result: 10%

Request: Recall the recorded growth at 100 µM for C/C=C(/C)C(=O)O[C@@H]1CC(C)(C)C[C@H]2C3=CC[C@@H]4[C@@]5(C)CC[C@H](O)C(C)(C)[C@@H]5CC[C@@]4(C)[C@]3(C)CC[C@@]12C(=O)O with RPMI-8226 and state it.
Result: -15%

Request: Recall the recorded growth at 100 µM for CC(C)=CC(=O)O[C@@H]1CC(C)(C)C[C@H]2C3=CC[C@@H]4[C@@]5(C)CC[C@H](O)C(C)(C)[C@@H]5CC[C@@]4(C)[C@]3(C)CC[C@@]12C(=O)O with RPMI-8226 and state it.
Result: -19%

Request: Recall the recorded growth at 100 µM for CC(C)=CC(=O)O[C@@H]1CC(C)(C)C[C@H]2C3=CC[C@@H]4[C@@]5(C)CCC(=O)C(C)(C)[C@@H]5CC[C@@]4(C)[C@]3(C)CC[C@@]12C(=O)O with RPMI-8226 and state it.
Result: -19%

Numbers sourced from ChEMBL document CHEMBL2413072.
